- experimental.conditions: mouse, in vivo, iv, Distribution half-life
Numbered stars: 1 amine (or outer) side, 2 acyl side, 3 side chain; on linkers, the order of the positions; unused ones are H or OH. Square brackets hold non-standard residues; d marks the D form. Peptide text beside a SMILES is read from it. βAla(3R-(1-naphthyl)) = O=C(C[C@@H](N[*:1])c1cccc2ccccc12)[*:2]
assay.readout: half-life

Give its half-life value. Item: N=C(N)NCCC[C@@H]1NC(=O)[C@H]2CCCN2C(=O)[C@@H]2CCCN2C(=O)[C@H](CCCNC(=N)N)NC(=O)C[C@H](c2cccc3ccccc23)NC(=O)[C@H](Cc2ccccc2)NC(=O)[C@H](CC(=O)O)NC(=O)[C@H](CC(=O)O)NC(=O)[C@H](Cc2ccccc2)NC(=O)C[C@H](c2cccc3ccccc23)NC1=O [Compound 18] (cyclo(DDF[βAla(3R-(1-naphthyl))]RP[dP]R[βAla(3R-(1-naphthyl))]F)) ~48 min

====

- experimental.conditions: mouse, in vivo, iv
Numbered stars: 1 amine (or outer) side, 2 acyl side, 3 side chain; on linkers, the order of the positions; unused ones are H or OH. Square brackets hold non-standard residues; d marks the D form. Peptide text beside a SMILES is read from it. βAla(3R-(1-naphthyl)) = O=C(C[C@@H](N[*:1])c1cccc2ccccc12)[*:2]
assay.readout: clearance

Give its clearance value. Item: N=C(N)NCCC[C@@H]1NC(=O)[C@H]2CCCN2C(=O)[C@@H]2CCCN2C(=O)[C@H](CCCNC(=N)N)NC(=O)C[C@H](c2cccc3ccccc23)NC(=O)[C@H](Cc2ccccc2)NC(=O)[C@H](CC(=O)O)NC(=O)[C@H](CC(=O)O)NC(=O)[C@H](Cc2ccccc2)NC(=O)C[C@H](c2cccc3ccccc23)NC1=O [Compound 18] (cyclo(DDF[βAla(3R-(1-naphthyl))]RP[dP]R[βAla(3R-(1-naphthyl))]F)) ~0.00433 mL/min

====

- experimental.conditions: mouse, in vivo, iv, Terminal half-life in vivo
Numbered stars: 1 amine (or outer) side, 2 acyl side, 3 side chain; on linkers, the order of the positions; unused ones are H or OH. Square brackets hold non-standard residues; d marks the D form. Peptide text beside a SMILES is read from it. βAla(3R-(1-naphthyl)) = O=C(C[C@@H](N[*:1])c1cccc2ccccc12)[*:2]
assay.readout: half-life

Give its half-life value. Item: N=C(N)NCCC[C@@H]1NC(=O)[C@H]2CCCN2C(=O)[C@@H]2CCCN2C(=O)[C@H](CCCNC(=N)N)NC(=O)C[C@H](c2cccc3ccccc23)NC(=O)[C@H](Cc2ccccc2)NC(=O)[C@H](CC(=O)O)NC(=O)[C@H](CC(=O)O)NC(=O)[C@H](Cc2ccccc2)NC(=O)C[C@H](c2cccc3ccccc23)NC1=O [Compound 18] (cyclo(DDF[βAla(3R-(1-naphthyl))]RP[dP]R[βAla(3R-(1-naphthyl))]F)) > 2400 min

====

- experimental.conditions: mouse, in vivo, iv
Numbered stars: 1 amine (or outer) side, 2 acyl side, 3 side chain; on linkers, the order of the positions; unused ones are H or OH. Square brackets hold non-standard residues; d marks the D form. Peptide text beside a SMILES is read from it. βAla(3R-(1-naphthyl)) = O=C(C[C@@H](N[*:1])c1cccc2ccccc12)[*:2]
assay.readout: Vd

Give its Vd value. Item: N=C(N)NCCC[C@@H]1NC(=O)[C@H]2CCCN2C(=O)[C@@H]2CCCN2C(=O)[C@H](CCCNC(=N)N)NC(=O)C[C@H](c2cccc3ccccc23)NC(=O)[C@H](Cc2ccccc2)NC(=O)[C@H](CC(=O)O)NC(=O)[C@H](CC(=O)O)NC(=O)[C@H](Cc2ccccc2)NC(=O)C[C@H](c2cccc3ccccc23)NC1=O [Compound 18] (cyclo(DDF[βAla(3R-(1-naphthyl))]RP[dP]R[βAla(3R-(1-naphthyl))]F)) ~0.011 L
